- targetUnderTest: Neurotensin receptor type 1 (Homo sapiens, UniProt P30989)
- Sequence (P30989 whole entry): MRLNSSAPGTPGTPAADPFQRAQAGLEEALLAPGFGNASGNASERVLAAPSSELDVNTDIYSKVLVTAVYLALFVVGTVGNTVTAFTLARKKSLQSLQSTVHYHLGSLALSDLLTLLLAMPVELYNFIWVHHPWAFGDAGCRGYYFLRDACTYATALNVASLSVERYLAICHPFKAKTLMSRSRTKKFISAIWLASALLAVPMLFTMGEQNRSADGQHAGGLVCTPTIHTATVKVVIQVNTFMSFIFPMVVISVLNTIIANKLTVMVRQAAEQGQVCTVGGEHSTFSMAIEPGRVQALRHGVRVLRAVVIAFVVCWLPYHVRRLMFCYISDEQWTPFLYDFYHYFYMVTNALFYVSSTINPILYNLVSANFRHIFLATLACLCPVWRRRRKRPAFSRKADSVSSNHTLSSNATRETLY
- assayName: Displacement of [125I]Tyr3-NT from human NTS1R expressed in HT29 cells
- Assay type: cell-based, HT-29
Starred links: 1 amine or outer side, 2 acyl side, 3 side chain; linkers in the order of their positions; H or OH if unused. Non-standard residues stand in square brackets, D forms with d. Residues, ends and D or L forms follow the SMILES beside them. Groups on a side chain read outwards from the residue. *: point of attachment. X1 = NC(N)=NCCCC(CN([C@@H](CCCN=C(N)N)C(=O)[*:2])[*:1])N[*:3]; X3 = NCCCCC(CN([C@@H](CCCN=C(N)N)C(=O)[*:2])[*:1])N[*:3]; Tle = CC(C)(C)[C@H](N)C(=O)O; X2 = NCCNCC(CNCCN)C(=O)*
endpoint: IC50 (nM)
Unit nM implied. Number only.

Look over these answered cases.
compound	targetUnderTest	endpoint	readoutUnits	recordedMeasurement
CC(C)C[C@H](NC(=O)[C@@H](NC(=O)[C@H](Cc1ccc(O)cc1)NC(=O)[C@@H]1CCCN1C(=O)[C@H](CCCN=C(N)N)NCC(CCCN=C(N)N)NC(=O)CNC(=O)C(CNCCN)CNCCN)C(C)(C)C)C(=O)O (stereo partly drawn) [DEMOTENSIN 4] (H-[X1]([Gly-X2])PY[Tle]L-OH)	Neurotensin receptor type 1 (Homo sapiens, UniProt P30989)	IC50	nM	0.85
CC(C)C[C@H](NC(=O)[C@@H](NC(=O)[C@H](Cc1ccc(O)cc1)NC(=O)[C@@H]1CCCN1C(=O)[C@H](CCCN=C(N)N)NCC(CCCCN)NC(=O)CNC(=O)C(CNCCN)CNCCN)C(C)(C)C)C(=O)O (stereo partly drawn) [DEMOTENSIN 3] (H-[X3]([Gly-X2])PY[Tle]L-OH)	Neurotensin receptor type 1 (Homo sapiens, UniProt P30989)	IC50	nM	1.5
CC[C@H](C)[C@H](NC(=O)[C@H](Cc1ccc(O)cc1)NC(=O)[C@@H]1CCCN1C(=O)[C@H](CCCN=C(N)N)NCC(CCCCN)NC(=O)CNC(=O)C(CNCCN)CNCCN)C(=O)N[C@@H](CC(C)C)C(=O)O (some centres undefined) [DEMOTENSIN 2] (H-[X3]([Gly-X2])PYIL-OH)	Neurotensin receptor type 1 (Homo sapiens, UniProt P30989)	IC50	nM	0.41

[ask] # return recorded IC50 for input CC[C@H](C)[C@H](NC(=O)[C@H](Cc1ccc(O)cc1)NC(=O)[C@@H]1CCCN1C(=O)[C@H](CCCN=C(N)N)NC(=O)[C@H](CCCN=C(N)N)NC(=O)CNC(=O)C(CNCCN)CNCCN)C(=O)N[C@@H](CC(C)C)C(=O)O [Demotensin 1] (X2-GRRPYIL-OH)
[reply] 0.32
